The origin of these recorded values is PubChem BioAssay (EPA / NIEHS).

# Assay overview: ATG_PXRE_CIS: Attagene CIS-FACTORIAL HepG2 Assay for human Pregnane X Receptor Element (PXRE) (AID 2282957)
# Protocol conditions: HepG2 Attagene CIS-FACTORIAL PXRE reporter, mRNA; actives raise or lower the signal
Active and inactive are the calls of the source. How the source made its calls: active means hit-call score of the fitted dose curve at least 0.9, where 1 is the maximum; inactive means score below 0.9.
Possible outcomes: class 1 (active), class 0 (inactive)

>>> df
                                    compound  class_assignment
 0                       [O-][n+]1ccc(Cl)cc1           class 0
 1              O=[N+]([O-])c1ccc2nc[nH]c2c1           class 0
 2  CCC(C)C1N=C(C)C(C)S1 (stereo unspecified)           class 1
 3                   O=C(O)Cc1c[nH]c2ccccc12           class 1
 4           Clc1ccc(Sc2cc(Cl)c(Cl)cc2Cl)cc1           class 1
 5                   O=C(OCc1ccccc1)c1ccccc1           class 1
 6   CC(=O)Nc1c(I)c(NC(C)=O)c(I)c(C(=O)O)c1I           class 0
 7              O=[N+]([O-])c1ccccc1C(F)(F)F           class 0
 8  CC(C)(C)NC(=O)[C@@H]1CN(Cc2cccnc2)CCN1C[C@@H](O)C[C@@H](Cc1ccccc1)C(=O)N[C@H]1c2ccccc2C[C@H]1O           class 1
 9                               OCCc1ccccn1           class 0
10                C=C1CC[C@H]2C[C@@H]1C2(C)C           class 1
11              c1ccc(CNc2ncnc3nc[nH]c23)cc1           class 0
12                         CC(C)CC(=O)CC(C)C           class 0
13                      O=C(O)c1ccccc1C(=O)O           class 1
14                                   CCCOCCC           class 0
15                             CC/C=C\CCCCCO           class 1
16                 Brc1ccc(Oc2ccc(Br)cc2)cc1           class 1
17                  O=S(=O)(O)c1cccc2ccccc12           class 0
18                          CC(=O)CCc1ccccc1           class 0
19                      Oc1ccc(Oc2ccccc2)cc1           class 1
20                               CCCCNC(N)=O           class 1
